Overview of recorded OD450 nm for various binders
Target: T1, human GPC3-His protein (human, UniProt P51654 25-559)
T1 construct: Bought protein; also called human GPC3 protein; not shown: His tag
Test: ELISA, coated human GPC3, antibody 0.001 nM
Respond with the bare value in OD450.

Sample answers from the record:
F1.57.21 human-murine chimeric antibody (antibody, human IgG1, kappa, V domains shown) VH: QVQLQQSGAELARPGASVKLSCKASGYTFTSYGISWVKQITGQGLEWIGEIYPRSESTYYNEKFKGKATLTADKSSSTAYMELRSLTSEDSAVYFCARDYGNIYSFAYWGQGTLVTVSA VL: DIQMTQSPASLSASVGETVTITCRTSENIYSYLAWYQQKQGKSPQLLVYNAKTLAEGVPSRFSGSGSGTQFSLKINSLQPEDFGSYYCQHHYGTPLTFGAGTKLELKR: 0.11
F1.120.16 human-murine chimeric antibody (antibody, human IgG1, kappa, V domains shown) VH: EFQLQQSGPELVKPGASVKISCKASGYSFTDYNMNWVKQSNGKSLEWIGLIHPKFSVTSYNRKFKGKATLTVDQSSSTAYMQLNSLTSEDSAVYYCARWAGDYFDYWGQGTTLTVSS VL: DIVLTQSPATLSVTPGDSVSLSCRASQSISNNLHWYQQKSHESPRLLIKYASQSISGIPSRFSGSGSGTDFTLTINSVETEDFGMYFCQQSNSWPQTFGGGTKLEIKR: 0.14
F1.153.1 human-murine chimeric antibody (antibody, human IgG1, kappa, V domains shown) VH: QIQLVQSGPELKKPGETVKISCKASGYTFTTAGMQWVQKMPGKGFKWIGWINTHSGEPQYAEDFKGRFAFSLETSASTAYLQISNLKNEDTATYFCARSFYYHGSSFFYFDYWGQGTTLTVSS VL: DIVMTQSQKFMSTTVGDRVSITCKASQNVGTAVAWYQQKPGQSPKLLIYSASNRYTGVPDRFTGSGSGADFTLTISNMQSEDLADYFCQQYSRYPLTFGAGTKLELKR: 0.1
F1.136.7 human-murine chimeric antibody (antibody, human IgG1, kappa, V domains shown) VH: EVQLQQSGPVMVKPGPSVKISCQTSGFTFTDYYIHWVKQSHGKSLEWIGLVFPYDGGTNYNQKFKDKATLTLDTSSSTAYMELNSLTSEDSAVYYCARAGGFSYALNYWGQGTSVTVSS VL: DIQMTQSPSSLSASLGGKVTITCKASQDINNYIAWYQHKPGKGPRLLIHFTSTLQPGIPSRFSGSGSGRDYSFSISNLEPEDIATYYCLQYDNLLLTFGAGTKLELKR: 0.1
F2.39.2 human-murine chimeric antibody (antibody, human IgG1, kappa, V domains shown) VH: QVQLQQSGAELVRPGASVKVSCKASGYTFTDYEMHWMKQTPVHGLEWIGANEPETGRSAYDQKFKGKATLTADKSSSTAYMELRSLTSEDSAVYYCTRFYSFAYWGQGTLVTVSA VL: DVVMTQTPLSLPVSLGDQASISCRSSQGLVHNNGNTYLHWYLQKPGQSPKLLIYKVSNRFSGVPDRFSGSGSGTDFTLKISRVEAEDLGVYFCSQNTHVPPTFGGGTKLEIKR: 0.12

QUERY: For the binder F1.2.14 human-murine chimeric antibody (antibody, human IgG1, kappa, V domains shown) VH: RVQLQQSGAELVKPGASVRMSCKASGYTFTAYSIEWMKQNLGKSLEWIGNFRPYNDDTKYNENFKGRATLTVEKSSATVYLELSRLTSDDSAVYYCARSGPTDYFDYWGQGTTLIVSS VL: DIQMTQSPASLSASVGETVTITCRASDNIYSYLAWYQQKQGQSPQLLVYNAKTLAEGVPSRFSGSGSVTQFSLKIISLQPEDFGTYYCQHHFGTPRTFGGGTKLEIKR , what OD450 nm is on record?
RESULT: 0.1
